Target: GGTase I (Homo sapiens)
Construct: FTase and GGTase I activities from 60,000×g supernatants of human Burkitt lymphoma (Daudi) cells; endogenous in cells; host or cells: human Burkitt lymphoma (Daudi) cells, 60,000xg supernatant (partially purified)
Experiment: GGTase I activity assay: transfer of [3H]geranylgeranyl to recombinant H-Ras-CVLL, Daudi 60,000xg supernatant
Assay type: biochemical
Conditions: Table 4; read-out: GGTase-I IC50
Listing: IC50 of selected compounds
readoutLabel: IC50 (nM)

compound: N[C@@H](CS)C(=O)NCc1cccc(-c2cccc(C(=O)O)c2)c1 [FTI-238, Cys-3-aminomethyl-3'-carboxybiphenyl]
relationalOperator: >
valueObserved: 100000
--
compound: N[C@@H](CS)CNc1ccc(-c2cccc(C(=O)O)c2)cc1 [FTI-265]
relationalOperator: =
valueObserved: 100000
--
compound: CCCOc1cc(NC[C@@H](N)CS)ccc1-c1cccc(C(=O)O)c1 [FTI-288, red.Cys-4-amino-2-OPr-3'-carboxybiphenyl]
relationalOperator: =
valueObserved: 2380
--
compound: N[C@@H](CS)CNc1ccc(-c2cccc(C(=O)O)c2)c(-c2ccccc2)c1 [FTI-289]
relationalOperator: =
valueObserved: 643

* * *

Biological target: FTase (Homo sapiens)
Construct: FTase and GGTase I activities from 60,000×g supernatants of human Burkitt lymphoma (Daudi) cells; endogenous in cells; host or cells: human Burkitt lymphoma (Daudi) cells, 60,000xg supernatant (partially purified)
Test: FTase activity assay: transfer of [3H]farnesyl from FPP to recombinant H-Ras-CVLS, Daudi 60,000xg supernatant
Assay type: biochemical
Conditions: read-out: FTase IC50
pIC50: −log10 of the molar value.
readoutLabel: pIC50

molecule: CSCC[C@H](NC(=O)c1ccc(NC[C@@H](N)CS)cc1)C(=O)O [FTI-249]
valueObserved: 6.52

* * *

Molecular target: GGTase I (Homo sapiens)
Construct: FTase and GGTase I activities from 60,000×g supernatants of human Burkitt lymphoma (Daudi) cells; endogenous in cells; host or cells: human Burkitt lymphoma (Daudi) cells, 60,000xg supernatant (partially purified)
Assay: GGTase I activity assay: transfer of [3H]geranylgeranyl to recombinant H-Ras-CVLL, Daudi 60,000xg supernatant
Format: biochemical
Conditions: Table 4; read-out: GGTase-I IC50
Method: FTase and GGTase I activities from 60,000×g supernatants of human Burkitt lymphoma (Daudi) cells (ATCC, Rockville, Md., USA) were assayed as described previously for FTase (41). Briefly, 100 μg of the supernatant was incubated in 50 mM Tris, pH 7.5, 50 μM ZnCl2, 20 mM KCl and 1 mM dithiothreitol (DTT). […]
readoutLabel: IC50 (µM)

compound: CCS(=O)(=O)NCC(N)C(=O)Nc1ccc(-c2cccc(C(=O)O)c2)cc1 (stereo not drawn)
unitAbbreviation: µM
relationalOperator: >
valueObserved: 1000
--
compound: N[C@@H](CS)CNCc1cccc(-c2cccc(C(=O)O)c2)c1
unitAbbreviation: µM
relationalOperator: =
valueObserved: 35
--
compound: N[C@@H](CS)CNc1ccc(-c2ccc(C(=O)O)cc2)cc1
unitAbbreviation: µM
relationalOperator: >
valueObserved: 100
--
compound: CSCC[C@H](NC(=O)c1ccc(NC[C@@H](N)CS)cc1)C(=O)O
unitAbbreviation: µM
relationalOperator: =
valueObserved: 4.4
--
compound: Cc1cccc(-c2ccc(NC[C@@H](N)CS)cc2)c1
unitAbbreviation: µM
relationalOperator: >
valueObserved: 100
--
compound: N[C@@H](CS)CNc1ccc(-c2ccccc2)cc1
unitAbbreviation: µM
relationalOperator: >
valueObserved: 100
--
compound: Cc1cccc(-c2ccc(NC[C@@H](N)CS)cc2-c2ccccc2)c1
unitAbbreviation: µM
relationalOperator: =
valueObserved: 8.5
--
compound: COC(=O)c1cccc(-c2ccc(NC[C@@H](N)CS)cc2)c1
unitAbbreviation: µM
relationalOperator: >
valueObserved: 100
--
compound: N[C@@H](CS)CNc1ccc(-c2ccccc2C(=O)O)cc1
unitAbbreviation: µM
relationalOperator: =
valueObserved: 140
--
compound: COc1cc(NC[C@@H](N)CS)ccc1-c1cccc(C(=O)O)c1
unitAbbreviation: µM
relationalOperator: =
valueObserved: 43.6
--
compound: N[C@@H](CS)CNc1ccc(-c2cccc(-c3nnn[nH]3)c2)cc1
unitAbbreviation: µM
relationalOperator: =
valueObserved: 5
--
compound: N[C@@H](CS)C(=O)Nc1ccc(-c2cccc(C(=O)O)c2)cc1
unitAbbreviation: µM
relationalOperator: =
valueObserved: 100

* * *

Listing: pIC50 of selected compounds
Target: GGTase I (Homo sapiens, UniProt P53609)
Construct: FTase and GGTase I activities from 60,000×g supernatants of human Burkitt lymphoma (Daudi) cells; endogenous in cells; host or cells: human Burkitt lymphoma (Daudi) cells, 60,000xg supernatant (partially purified)
Assay: GGTase I activity assay: transfer of [3H]geranylgeranyl to recombinant H-Ras-CVLL, Daudi 60,000xg supernatant
Assay type: biochemical
Settings: Table 5; read-out: In Vitro IC50 GGTase I
Description: FTase and GGTase I activities from 60,000×g supernatants of human Burkitt lymphoma (Daudi) cells (ATCC, Rockville, Md., USA) were assayed as described previously for FTase (41). Briefly, 100 μg of the supernatant was incubated in 50 mM Tris, pH 7.5, 50 μM ZnCl2, 20 mM KCl and 1 mM dithiothreitol (DTT). […]
pIC50: −log10 of the molar value.
readoutLabel: pIC50

chemicalSmiles: CSCC[C@H](NC(=O)c1ccc(NC[C@@H](N)CS)cc1-c1ccccc1)C(=O)O
valueObserved: 7.30
--
chemicalSmiles: CC(C)C[C@H](NC(=O)c1ccc(NC[C@@H](N)CS)cc1-c1ccccc1)C(=O)O
valueObserved: 8.30

* * *

System: K-Ras4B processing
Assay: K-Ras4B processing assay in NIH 3T3 cells overexpressing oncogenic K-Ras4B
Type: cell-based
Conditions: Mus musculus, NIH3T3; whole cells; read-out: K-Ras4B processing IC50

molecule: COC(=O)[C@H](CC(C)C)NC(=O)c1ccc(NC[C@@H](N)CS)cc1-c1ccccc1.Cl [GGTI-286, hydrochloride]
IC50: 2 µM

* * *

Listing: pIC50 of selected compounds
Molecular target: GGTase I (Homo sapiens, UniProt P53609)
Construct: FTase and GGTase I activities from 60,000×g supernatants of human Burkitt lymphoma (Daudi) cells; endogenous in cells; host or cells: human Burkitt lymphoma (Daudi) cells, 60,000xg supernatant (partially purified)
Assay: GGTase I activity assay: transfer of [3H]geranylgeranyl to recombinant H-Ras-CVLL, Daudi 60,000xg supernatant
Assay type: biochemical
Settings: Table 1; read-out: GGTase I IC50
pIC50: −log10 of the molar value.

compound: CSCC[C@H](NC(=O)c1ccc(NC[C@@H](N)CS)cc1)C(=O)O [FTI-249]
pIC50: 5.40
//
compound: CSCC[C@H](NC(=O)c1ccc(NC(=O)[C@@H](N)CS)cc1-c1cc(C)cc(C)c1)C(=O)O.O=C(O)C(F)(F)F [FTI-275]
pIC50: 6.40
//
compound: CSCC[C@H](NC(=O)c1ccc(NC[C@@H](N)CS)cc1-c1ccccc1)C(=O)O [FTI-276]
pIC50: 7.24
//
compound: COc1cc(C(=O)NC(CCSC)C(=O)O)ccc1NC(=O)C(N)CS.O=C(O)C(F)(F)F (centres unmarked) [FTI-261]
pIC50: 4.30
//
compound: COC(=O)C(CCSC)NC(=O)c1ccc(NC(=O)C(N)CS)cc1-c1ccccc1.Cl (centres unmarked) [FTI-274]
pIC50: 4.52
//
compound: COC(=O)[C@H](CCSC)NC(=O)c1ccc(NC[C@@H](N)CS)cc1 [FTI-254]
pIC50: 4.72
//
compound: COC(=O)[C@H](CCSC)NC(=O)c1ccc(NC[C@@H](N)CS)cc1-c1ccccc1 [FTI-277]
pIC50: 5.80
//
compound: CSCC[C@H](NC(=O)c1ccc(NC(=O)[C@@H](N)CS)cc1-c1ccccc1)C(=O)O.O=C(O)C(F)(F)F [FTI-272]
pIC50: 6.57

* * *

Biological target: FTase (Homo sapiens)
Construct: FTase and GGTase I activities from 60,000×g supernatants of human Burkitt lymphoma (Daudi) cells; endogenous in cells; host or cells: human Burkitt lymphoma (Daudi) cells, 60,000xg supernatant (partially purified)
Assay: FTase activity assay: transfer of [3H]farnesyl from FPP to recombinant H-Ras-CVLS, Daudi 60,000xg supernatant
Assay type: biochemical
Conditions: Table 1; ratio GGTase I IC50 / FTase IC50

molecule: COC(=O)[C@H](CCSC)NC(=O)c1ccc(NC[C@@H](N)CS)cc1-c1ccccc1
GG/F: 32

molecule: COc1cc(C(=O)NC(CCSC)C(=O)O)ccc1NC(=O)C(N)CS.O=C(O)C(F)(F)F (stereo not shown)
GG/F: 20

molecule: CSCC[C@H](NC(=O)c1ccc(NC[C@@H](N)CS)cc1)C(=O)O
GG/F: 15

molecule: COC(=O)C(CCSC)NC(=O)c1ccc(NC(=O)C(N)CS)cc1-c1ccccc1.Cl (stereo not shown)
GG/F: 15
